# EXPERIMENTAL SYSTEM: MERTK (UniProt Q12866)
# Sequence (Q12866 whole entry, looked up): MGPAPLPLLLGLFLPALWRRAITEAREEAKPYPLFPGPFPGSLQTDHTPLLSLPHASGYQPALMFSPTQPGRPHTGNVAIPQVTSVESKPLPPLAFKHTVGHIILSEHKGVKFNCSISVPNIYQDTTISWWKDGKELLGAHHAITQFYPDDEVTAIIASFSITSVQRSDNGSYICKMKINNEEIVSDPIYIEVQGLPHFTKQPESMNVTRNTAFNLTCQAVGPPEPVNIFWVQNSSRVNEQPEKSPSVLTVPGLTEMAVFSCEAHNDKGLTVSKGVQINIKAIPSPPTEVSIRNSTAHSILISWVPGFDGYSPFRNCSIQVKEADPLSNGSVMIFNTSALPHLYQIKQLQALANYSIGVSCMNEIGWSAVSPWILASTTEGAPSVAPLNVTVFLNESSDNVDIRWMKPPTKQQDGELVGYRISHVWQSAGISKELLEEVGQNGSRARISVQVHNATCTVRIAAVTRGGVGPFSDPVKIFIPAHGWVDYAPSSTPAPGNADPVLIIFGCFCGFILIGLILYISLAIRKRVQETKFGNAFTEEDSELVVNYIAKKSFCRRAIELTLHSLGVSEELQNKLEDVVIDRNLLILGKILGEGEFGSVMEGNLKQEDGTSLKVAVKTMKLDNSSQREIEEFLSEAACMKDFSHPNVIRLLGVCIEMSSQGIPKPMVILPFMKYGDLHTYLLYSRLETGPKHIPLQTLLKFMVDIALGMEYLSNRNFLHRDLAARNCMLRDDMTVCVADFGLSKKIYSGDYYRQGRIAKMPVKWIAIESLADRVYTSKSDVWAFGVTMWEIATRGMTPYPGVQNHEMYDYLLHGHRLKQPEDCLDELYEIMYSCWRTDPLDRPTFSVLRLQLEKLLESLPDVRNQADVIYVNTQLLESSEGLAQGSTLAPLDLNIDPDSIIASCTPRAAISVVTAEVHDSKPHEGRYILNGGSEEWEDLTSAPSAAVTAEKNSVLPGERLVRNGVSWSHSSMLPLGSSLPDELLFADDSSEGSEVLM
# TEST METHOD NOTES: phosphorylation enrichment, bacterial display (enrichment ratio); higher = better substrate or ligand; peptides without Tyr show the background;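 also: 11-residue human phosphosite peptides and single-mutation variants displayed on the E. coli surface, counted by deep sequencing, each peptide's frequency after selection divided by its frequency in the unselected input library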;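 also: frequency after pTyr selection over input frequency; kinase dosed for 20-30% of maximal phosphorylation in three min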
Give 1 when the value for phosphorylation enrichment is at least 0.4. Give 0 when it is less.

Illustrative cases are given below, each with its answer.
# BIOSEQUENCE, ASSIGNED CLASS
measured = [
    ("AQVDTYCRHNY [HLA-DRB1_Y107_A103Q]", 1),
    ("KGPNVYKKTVN [REV3L_Y1156]", 0),
    ("RPSRQYATLDV [SCAMP3_Y35]", 0),
]

Asked: Does ATAKGYEPDAS [OTC_Y223_P220A] have a reported phosphorylation enrichment of at least 0.4?
Given back: 1

Asked: Same read-out for NVTRKYSRQIL [MAP3K2_Y463_T464S] ?
Given back: 0

Asked: Same read-out for ILGTFYETGSI [PAX2_Y73_R71T_YF] ?
Given back: 1

Asked: Same read-out for VATRWYRSPEP [CDKL5_Y177_L182P] ?
Given back: 1

Asked: Same read-out for FLRKEYGGLNV [CBR3_Y81] ?
Given back: 0

Asked: Same read-out for GAPATYEGDAR [CACNA1A_Y1013] ?
Given back: 0
